System: Differentiated U937 cells
Test: MTT assay (cell viability)
Format: cell-based, human
Details: Table 3, second MTT column; loss of cell viability at 1 μg/ml
Assay Metric: DU937 (cell viability) MTT assay 4 h

// below: answered compounds
// DU937 (cell viability) MTT assay 4 h lookup, compound = `Cc1ccc(-n2nc(C(C)(C)C)cc2NC(=O)Nc2ccc(Oc3ccnc(NC(=O)N4CC[C@@H](N(C)C)C4)c3)c3ccccc23)cc1` , result: − (<=30%)

Measured DU937 (cell viability) MTT assay 4 h, `Cc1ccc(-n2nc(C(C)(C)C)cc2NC(=O)Nc2ccc(Oc3ccnc(NC(=O)NCC(=O)N4CCOCC4)c3)c3ccccc23)cc1` : − (<=30%)

Looking up `Cc1ccc(-n2nc(C(C)(C)C)cc2NC(=O)Nc2ccc(Oc3ccnc(NC(=O)N4CCCCC4)c3)c3ccccc23)cc1` , I see its DU937 (cell viability) MTT assay 4 h listed as − (<=30%)

Form: compound = `Cc1ccc(-n2nc(C(C)(C)C)cc2NC(=O)Nc2ccc(Oc3ccnc(NC(=O)N4CCN(C)CC4)c3)c3ccccc23)cc1` ; DU937 (cell viability) MTT assay 4 h = − (<=30%)

Lab book: DU937 (cell viability) MTT assay 4 h of `COCCNC(=O)CNC(=O)Nc1cc(Oc2ccc(NC(=O)Nc3cc(C(C)(C)C)nn3-c3ccc(C)cc3)c3ccccc23)ccn1` noted as − (<=30%)

Further cases:
Record `Cc1ccc(-n2nc(C(C)(C)C)cc2NC(=O)Nc2ccc(Oc3ccnc(NC(=O)NCC(=O)NCCN4CCOCC4)c3)c3ccccc23)cc1` , field DU937 (cell viability) MTT assay 4 h: − (<=30%)

According to the records, this compound `CNC(=O)Nc1cc(Oc2ccc(NC(=O)Nc3cc(C(C)(C)C)nn3-c3ccc(C)cc3)c3ccccc23)ccn1` displays DU937 (cell viability) MTT assay 4 h of − (<=30%)

Sure, the documented DU937 (cell viability) MTT assay 4 h for `Cc1ccc(-n2nc(C(C)(C)C)cc2NC(=O)Nc2ccc(Oc3ccnc(NC(=O)N(C)CCN4CCOCC4)c3)c3ccccc23)cc1` is − (<=30%)

Entry `COCCOCC(=O)N1CCC(NC(=O)Nc2cc(Oc3ccc(NC(=O)Nc4cc(C(C)(C)C)nn4-c4ccc(C)cc4)c4ccccc34)ccn2)CC1` — recorded DU937 (cell viability) MTT assay 4 h = + (>30%)

###

System: Differentiated U937 cells
Assay: MTT assay (cell viability)
Assay type: cell-based, human
Details: Table 2; loss of cell viability, test conducted at 10 μg/ml
Assay Metric: DU937 (cell viability) MTT assay 24 h

Record `Cc1ccc(-n2nc(C(C)(C)C)cc2NC(=O)Nc2ccc(Oc3ccnc(NC(=O)C4CCOCC4)c3)c3ccccc23)cc1` , field DU937 (cell viability) MTT assay 24 h: +^$ (>30%)

// DU937 (cell viability) MTT assay 24 h lookup, compound = `Cc1ccc(-n2nc(C(C)(C)C)cc2NC(=O)Nc2ccc(Oc3ccnc(NC(=O)CN(C)C)c3)c3ccccc23)cc1` , result: +^$ (>30%)

Lab note: measured DU937 (cell viability) MTT assay 24 h of `Cc1ccc(-n2nc(C(C)(C)C)cc2NC(=O)Nc2ccc(Oc3ccnc(NC(=O)CN4CCOCC4)c3)c3ccccc23)cc1` was +^$ (>30%)

Measured DU937 (cell viability) MTT assay 24 h of `COCCC(=O)Nc1cc(Oc2ccc(NC(=O)Nc3cc(C(C)(C)C)nn3-c3ccc(C)cc3)c3ccccc23)ccn1` : +^$ (>30%)
